- Test system: COLO 205 colon
- assay-comment: NCI tumour cell line growth inhibition, 48 h
molecules and their reported TGI

// known answers, use as guide
INSERT INTO measurements (molecule, reading) VALUES
  ('O=C(N/N=C/c1cc2ccccc2c2ccccc12)c1cc(O)c(O)c(O)c1', '10.9 µM'),
  ('Cc1oc2c(c1C(=O)c1ccccc1)C(=O)c1ccccc1C2=O', '36.5 µM'),
  ('C/C=C(/C)C(=O)OC1C=C(CO)C(=O)C(OC(=O)/C(C)=C\C)C1C(C)C (stereo not given)', '2.75 µM'),
  ('COC(=O)C1CCc2c(OC)ccc(OC)c2C1=O (stereo not given)', '> 100 µM'),
  ('CC1=NN(C(=O)c2ccc(Cl)cc2)C(=O)/C1=C/c1cccc(O)c1', '> 100 µM'),
  ('CCOC(=O)Cn1nc2ccc(Nc3nc4ccccc4nc3C(=O)OCC)cc2n1', '> 100 µM');

[in] Reported TGI for CCC12C=CCN3CC[C@]4(C(=C(C(=O)OC)[C@@H]1Nc1ccn(C5OC(COC(C)=O)C(OC(C)=O)C5OC(C)=O)c(=O)n1)Nc1ccccc14)C32 (stereo not given in full) : what is it?
[out] 8.11 µM

[in] Using the record for COc1ccc(-c2c(N)[n+]([O-])c3cc(C)c(C)cc3[n+]2[O-])cc1OC , report its TGI.
[out] 50.3 µM

[in] Using the record for C=C(C)C1CC[C@]2(C(=O)O)CCC3(C)[C@H](CCC4[C@@]5(C)CC[C@H](OC6OC(CO)C(O)C6OC6OC(C)C(O)C(O)C6O)[C@@](C)(CO)C5CC[C@]43C)C12 (stereo not given in full) , report its TGI.
[out] > 100 µM

----------
Quick list: TGI per entry.
- Tested on: SN12C renal
- assay-comment: NCI tumour cell line growth inhibition, 48 h

Below, 5 compounds whose answers are already recorded.
INSERT INTO results (compound, attribute_measured, reading) VALUES
  ('CN1N=C(c2ccncc2)OC1c1ccc(Cl)c(Cl)c1 (centres undefined)', 'TGI', '> 100 µM'),
  ('Cc1ccc(C2SC(N)=Nc3c2c(C)nn3C(=O)c2ccncc2)cc1 (centres undefined)', 'TGI', '> 10 µM'),
  ('Cc1ccc(NC(=O)SCCC(=O)O)cc1NC(=O)SCCC(=O)O', 'TGI', '> 100 µM'),
  ('O=C(O)C1Cc2nc[nH]c2CN1 (centres undefined)', 'TGI', '> 100 µM'),
  ('COCCN1C2=CCCCC2=Nc2c(N)nc(N)nc21', 'TGI', '> 100 µM');

[in] Query the reported TGI for SN12C renal; item: CN(C)CC1(C)CC/C(=C\c2ccc3c(c2)OCO3)C1=O (centres undefined)
[out] > 100 µM

[in] Write down the reported TGI of Cc1ccnc2c1NC(=O)c1cccnc1N2C1CC1 , test system: SN12C renal.
[out] > 100 µM

[in] Param readout= TGI; system= SN12C renal; entry= CSc1s[s+]c(SC)c1[O-] ; returns value.
[out] 52.5 µM

[in] Field: TGI (SN12C renal). Entry: CC(=O)N1c2ccccc2C23CCN4CC5=CCOC(O)C(C5CC42)C13 (centres undefined)
[out] > 100 µM
